- Assay system: equine FcRn (large alpha subunit p51) in complex with equine beta-2-microglobulin (equine) (UniProt F6XZ61)
- Run description: SPR (Biacore), pH 6
Measurement type: Kd
Give me the value, and tack the unit on after it.

binder="equine IgG7 D312Q mutant (antibody, part only; not given: variable domains, not shown: another chain or arm of the molecule) constant: ASTTAPKVFPLASHSAATSGSTVALGCLVSSYFPEPVTVSWNSGALTSGVHTFPSVLQSSGLYSLSSMVTVPASSLKSQTYICNVAHPASSTKVDKKIVIKECGGCPTCPECLSVGPSVFIFPPKPKDVLMISRTPTVTCVVVDVGHDFPDVQFNWYVDGVETHTATTEPKQEQNNSTYRVVSILAIQHKQWLSGKEFKCKVNNQALPAPVQKTISKPTGQPREPQVYVLAPHRDELSKNKVSVTCLVKDFYPTDIDIEWKSNGQPEPETKYSTTPAQLDSDGSYFLYSKLTVETNRWQQGTTFTCAVMHEALHNHYTEKSVSKSPGK" assay_value="13.6 nM"

Input equine IgG7 N434R mutant (antibody, part only; not given: Variable domains, not shown: another chain or arm of the molecule) constant: ASTTAPKVFPLASHSAATSGSTVALGCLVSSYFPEPVTVSWNSGALTSGVHTFPSVLQSSGLYSLSSMVTVPASSLKSQTYICNVAHPASSTKVDKKIVIKECGGCPTCPECLSVGPSVFIFPPKPKDVLMISRTPTVTCVVVDVGHDFPDVQFNWYVDGVETHTATTEPKQEQNNSTYRVVSILAIQHKDWLSGKEFKCKVNNQALPAPVQKTISKPTGQPREPQVYVLAPHRDELSKNKVSVTCLVKDFYPTDIDIEWKSNGQPEPETKYSTTPAQLDSDGSYFLYSKLTVETNRWQQGTTFTCAVMHEALHRHYTEKSVSKSPGK , output reported Kd.
273 nM

Origin of measurements: patent US20260070987A1
